- STUDY SYSTEM: RSV F on RSV-A2 virus (Respiratory syncytial virus, RSV-A2, UniProt P03420 26-574)
- ASSAY COMMENT: cell-based or functional assay
Neutralization IC50 (RSV subtype A) for assorted binders
READOUT TYPE: Neutralization IC50 (RSV subtype A)

{"columns": ["BINDER", "RESULT"],
 "data": [
  ["ADI-36676 (antibody, V domains shown, also called Ab 832; Antibody Number 832) VH: EVQLLESGGGVVQPGRSLRLSCAASGFSFRNYDMHWVRQAPGKGLEWVAIISYDGSNKYADSVKGRFTISRDTSKNTLYLQMNSLRVEDTAVYYCARADSSGYYKGSEYFQHWGQGTLVTVSS VL: SYELTQLPSVSVAPGQTARITCGGNNIGTKSVQWYQHKPGQAPVLVVYDDSDRPSDIPERFSGSNSGNTATLTISRVEAGDEADYYCQVWDSSSDHYVFGTGTKLTVL", "0.006 µg/mL"],
  ["ADI-41610 (antibody, V domains shown, also called Ab 884; Antibody Number 884) VH: EVQLLESGGGVVQPGRSLRLSCAASELSFRNYGMHWVRQAPGKGLEWVAVISYDGNDKYYADSVKGRFTISRDNSKKTLYLQMDSLRAEDTAVYYCAKEGAYCGGDCFSSWGQGTLVTVSS VL: GIQLTQSPSSLSASVGDRVTITCRASQSSSSYLNWYQQKPGKAPKLLIYAASSLQSGVPSRFSGSGSGTDFTLTISSLQPEDFATYYCQQSYSFGGGTKVEIK", "> 25 µg/mL"],
  ["ADI-41778 (antibody, V domains shown) VH: QVQLVESGGGQGQPGRSLRLSCAASGFTFDDYAMHWVRQVPGKGLEWVSGINWNSGYIGYADSVKGRFTISRDNAKNSLYLQMNSLRAEDTALYYCAKANNPIDSSGYNRGFDTWGQGTLVTVSS VL: QSALTQPRSVSGSPGQSVTISCTGTSSDVGGYNYVSWYQQHPGKAPKLMIYDVNKRPSGVPDRFSGSKSDNTASLTISGLQAEDESDYFCCSYAGTYTWVFGGGTKVTVL", "> 25 µg/mL"]
]}
